- Substrate: O=c1[nH]c(=O)c2[nH]c(=O)[nH]c2[nH]1
- assay procedure: purified protein
- Format: biochemical, Latimeria menadoensis
- experimental parameters: 50 mM sodium borate pH 8.0, 30 °C, 15-120 µM uric acid
Km listing for selected proteins.

Here are 3 proteins together with their reported answers.
L. menadoensis uricase A132C/A225C mutant (enzyme, UniProt M3XGK0 1-306, looked up, His6 tag joined by two residues from the XhoI site, as in m1; source: E. coli BL21(DE3), purified (Ni-NTA IMAC, gel filtration); not shown: His6, C-terminal, kept) MSHYVSSTRFQKDTDVEFVRTGYGKNIVKVLHIKREGKTHYIKEVEVAVQLALKSRKDYLYGDNSDIIPTDTMKNTVHALAKLKGINTIEEFAMDICEHFLTSFNHVTRANTYVEEAPWKRMEKNEVKHVHCFIYSPEATRFCEVEHHQNEPPVVHSGIKDMKVLKTTQSGFEGFVKDRFTTLPEVTDRCFSTVIYSKWLYNRSKNIDFDAAWKTVYDVIIEKFCGPYECGEYSPSVQKTLYETQVLCLNRVPEIEEVEIVMPNKHYFTIDMSKIGIVNKDEVLLPLDNPSGNITGTVRRKAHSKL	39.19 ± 0.5 µM
L. menadoensis uricase N289C mutant (enzyme, UniProt M3XGK0 1-306, looked up, Uricase (urate oxidase) of Latimeria menadoensis, 306 amino acids, same construct as the wild type (pET20LM-UOX) with N289C by site-directed mutagenesis; His6 tag joined by two residues from the XhoI site, as in m1; source: E. coli BL21(DE3), purified (Ni-NTA IMAC, gel filtration); not shown: His6, C-terminal, kept) MSHYVSSTRFQKDTDVEFVRTGYGKNIVKVLHIKREGKTHYIKEVEVAVQLALKSRKDYLYGDNSDIIPTDTMKNTVHALAKLKGINTIEEFAMDICEHFLTSFNHVTRANTYVEEAPWKRMEKNEVKHVHAFIYSPEATRFCEVEHHQNEPPVVHSGIKDMKVLKTTQSGFEGFVKDRFTTLPEVTDRCFSTVIYSKWLYNRSKNIDFDAAWKTVYDVIIEKFAGPYECGEYSPSVQKTLYETQVLCLNRVPEIEEVEIVMPNKHYFTIDMSKIGIVNKDEVLLPLDCPSGNITGTVRRKAHSKL	30.46 ± 0.1 µM
L. menadoensis uricase I27C/N289C mutant (enzyme, UniProt M3XGK0 1-306, looked up, His6 tag joined by two residues from the XhoI site, as in m1; which cysteines pair (C27 with C289 of the other subunit of a dimer) is a prediction only; source: E. coli BL21(DE3), purified (Ni-NTA IMAC, gel filtration); not shown: His6, C-terminal, kept) MSHYVSSTRFQKDTDVEFVRTGYGKNCVKVLHIKREGKTHYIKEVEVAVQLALKSRKDYLYGDNSDIIPTDTMKNTVHALAKLKGINTIEEFAMDICEHFLTSFNHVTRANTYVEEAPWKRMEKNEVKHVHAFIYSPEATRFCEVEHHQNEPPVVHSGIKDMKVLKTTQSGFEGFVKDRFTTLPEVTDRCFSTVIYSKWLYNRSKNIDFDAAWKTVYDVIIEKFAGPYECGEYSPSVQKTLYETQVLCLNRVPEIEEVEIVMPNKHYFTIDMSKIGIVNKDEVLLPLDCPSGNITGTVRRKAHSKL	35.39 ± 0.1 µM

Now for another entry.
// query Given L. menadoensis uricase S136C mutant (enzyme, UniProt M3XGK0 1-306, looked up, Uricase (urate oxidase) of Latimeria menadoensis, 306 amino acids, same construct as the wild type (pET20LM-UOX) with S136C by site-directed mutagenesis; His6 tag joined by two residues from the XhoI site, as in m1; source: E. coli BL21(DE3), purified (Ni-NTA IMAC, gel filtration); not shown: His6, C-terminal, kept) MSHYVSSTRFQKDTDVEFVRTGYGKNIVKVLHIKREGKTHYIKEVEVAVQLALKSRKDYLYGDNSDIIPTDTMKNTVHALAKLKGINTIEEFAMDICEHFLTSFNHVTRANTYVEEAPWKRMEKNEVKHVHAFIYCPEATRFCEVEHHQNEPPVVHSGIKDMKVLKTTQSGFEGFVKDRFTTLPEVTDRCFSTVIYSKWLYNRSKNIDFDAAWKTVYDVIIEKFAGPYECGEYSPSVQKTLYETQVLCLNRVPEIEEVEIVMPNKHYFTIDMSKIGIVNKDEVLLPLDNPSGNITGTVRRKAHSKL , state its recorded Km.
// result 15.28 ± 0.1 µM

This collection of values is drawn from paper PMC6471336.
